Molecular target: Aβ42 (Homo sapiens, UniProt P05067)
Sequence (P05067 672-713): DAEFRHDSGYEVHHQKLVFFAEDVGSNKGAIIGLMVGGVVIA
Assay: Th-T (thioflavin-T) assay of Aβ42 aggregation
Assay type: biochemical
Conditions: head suffix _20 (concentration 20); reading M83
# Th-T fluorescence of Aβ42 (sheet Fig. 7a), mean of three wells values compiled below
PARAMETER_MEASURED: Th-T fluorescence of Aβ42 (sheet Fig. 7a), mean of three wells

COMPOUND | REPORTED_VALUE
C=C1CCC2C(C)(CCC=C(C)C)C(O)CCC2(C)C1Cc1c(OC)oc(CO)c(C)c1=O (centres unmarked) | 2.116
C=C1CC[C@@H]2[C@](C)(CC[C@H]3O[C@H](C=C(C)C)C[C@@]23C)[C@@H]1Cc1c(OC)oc(CO)c(C(=O)OC)c1=O | 0.5074
C=C1CCC2C(C)(CCC=C(C)C)C(O)CCC2(C)C1Cc1c(OC)oc(C)c(C(=O)OC)c1=O (centres unmarked) | 1.888
C=C1CC[C@@H]2[C@](C)(CC[C@H]3O[C@H](C=C(C)C)C[C@@]23C)[C@@H]1Cc1c(OC)oc(CO)c(C)c1=O | 3.377
C=C1CCC2C(C)(CCC=C(C)C)C(O)CCC2(C)C1Cc1c(OC)oc(CO)c(C(=O)OC)c1=O (centres unmarked) | 1.058

* * *

Target: Aβ42 (Homo sapiens, UniProt P05067)
Experiment: Th-T (thioflavin-T) assay of Aβ42 aggregation
Type: biochemical
Settings: column suffix _20; reading M4
PARAMETER_MEASURED: Th-T assay signal, mean of three wells (Fig. 7a)

MOLECULE | REPORTED_VALUE
C=C1CCC2C(C)(CCC=C(C)C)C(O)CCC2(C)C1Cc1c(OC)oc(CO)c(C)c1=O (centres unmarked) | 0.6391
C=C1CC[C@@H]2[C@](C)(CC[C@H]3O[C@H](C=C(C)C)C[C@@]23C)[C@@H]1Cc1c(OC)oc(CO)c(C)c1=O | 0.2877
C=C1CCC2C(C)(CCC=C(C)C)C(O)CCC2(C)C1Cc1c(OC)oc(CO)c(C(=O)OC)c1=O (centres unmarked) | 0.2173
C=C1CC[C@@H]2[C@](C)(CC[C@H]3O[C@H](C=C(C)C)C[C@@]23C)[C@@H]1Cc1c(OC)oc(CO)c(C(=O)OC)c1=O | 0.2051
C=C1CCC2C(C)(CCC=C(C)C)C(O)CCC2(C)C1Cc1c(OC)oc(C)c(C(=O)OC)c1=O (centres unmarked) | 0.2741

* * *

// reported Th-T fluorescence of Aβ42 (sheet Fig. 7a), mean of three wells for each item listed
Target: Aβ42 (Homo sapiens, UniProt P05067)
Assay: Th-T (thioflavin-T) assay of Aβ42 aggregation
Type: biochemical
Conditions: head suffix _20 (concentration 20); reading M82
PARAMETER_MEASURED: Th-T fluorescence of Aβ42 (sheet Fig. 7a), mean of three wells

MOLECULE | REPORTED_VALUE
C=C1CCC2C(C)(CCC=C(C)C)C(O)CCC2(C)C1Cc1c(OC)oc(C)c(C(=O)OC)c1=O (centres unmarked) [Compound 14] | 1.915
C=C1CCC2C(C)(CCC=C(C)C)C(O)CCC2(C)C1Cc1c(OC)oc(CO)c(C(=O)OC)c1=O (centres unmarked) [Compound 13] | 1.061
C=C1CC[C@@H]2[C@](C)(CC[C@H]3O[C@H](C=C(C)C)C[C@@]23C)[C@@H]1Cc1c(OC)oc(CO)c(C)c1=O [Compound 20] | 3.387
C=C1CCC2C(C)(CCC=C(C)C)C(O)CCC2(C)C1Cc1c(OC)oc(CO)c(C)c1=O (centres unmarked) [Compound 12] | 2.121
C=C1CC[C@@H]2[C@](C)(CC[C@H]3O[C@H](C=C(C)C)C[C@@]23C)[C@@H]1Cc1c(OC)oc(CO)c(C(=O)OC)c1=O [Compound 21] | 0.4734
